studyTarget: BRCT(BRCA1) (Homo sapiens, UniProt P38398)
Sequence (P38398 1646-1859): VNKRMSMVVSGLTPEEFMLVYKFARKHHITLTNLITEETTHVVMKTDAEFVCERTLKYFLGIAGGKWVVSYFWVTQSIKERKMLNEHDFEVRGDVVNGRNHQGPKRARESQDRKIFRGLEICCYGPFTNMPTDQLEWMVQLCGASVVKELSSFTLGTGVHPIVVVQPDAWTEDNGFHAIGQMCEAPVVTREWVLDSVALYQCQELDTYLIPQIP
protocolSummary: fluorescence polarization competition
Type: binding
endpoint: IC50

Data request: Please supply the value of reported IC50 for the item CC(=O)N[C@@H](COP(=O)(O)O)C(=O)Nc1cccc(CC(=O)N[C@@H](Cc2ccccc2)C(=O)O)c1 [N1]
Data returned: > 250 µM
